System: EKVX NSCLC
procedure details: NCI-60 one-dose screen, 48 h
experimental parameters: 10 µM unless noted
The panel holds about 83,000 compounds, 20% with a hit somewhere; the sample as a whole holds those more often. Activity calls are given as the source filed them. The calls were made as follows: active = growth percent below 10; inactive = the rest.
Choose one outcome from this list and give only that: active, inactive

Worked examples follow.
Cc1ccc2c(n1)C(=O)C(Oc1ccc(F)cc1)=CC2=O ... inactive
O=S(=O)(Nc1ccsc1-c1nc(-c2ccccc2)no1)c1cc(Cl)cc(Cl)c1 ... inactive
Cc1ccc(-n2nnc(C3=NCCc4c3[nH]c3ccc(Cl)cc43)c2C)cc1 ... inactive
c1ccc([P+](CCCc2n(Cc3ccc4ccccc4c3)c3ccccc3[n+]2Cc2ccc3ccccc3c2)(c2ccccc2)c2ccccc2)cc1 ... inactive
Cc1c(C(N)=O)sc2nc(C)n(/N=c3\scc(-c4ccccc4)n3Cc3ccccc3)c(=O)c12 ... active
CC(C)(C)OC(=O)N1Cc2cc3ccccc3nc2C1CO (stereo unspecified) ... inactive
COc1ccc2c(c1)/C(=C\c1sc(=S)[nH]c1O)C(C(=O)O)=N2 ... inactive
C=CCN1C(=O)[C@]2(SC1=S)[C@H](c1cccc(Cl)c1)CN(C)[C@]21C(=O)NC2C=CC(Cl)=C[C@H]21 (stereo partly specified) ... inactive

Asked: What was the test verdict on c1ccc2[nH]c(SSc3nc4ncncc4[nH]3)nc2c1 ?
Given back: inactive

Asked: What was the test verdict on CNC(=O)c1c(NC(=O)c2ccc(C(C)(C)C)cc2)sc2c1CCC(=O)C2 ?
Given back: inactive

Asked: What was the test verdict on O=C(Nc1ccccc1Cl)OCCN1CCOCC1 ?
Given back: inactive

Asked: What was the test verdict on CCNCCNc1cc(-c2ccc(Cl)cc2)c(C#N)c2nc3ccccc3n12 ?
Given back: inactive

Asked: What was the test verdict on O=C1c2cccc3c(-c4ccc(-c5nc6c7ccccc7c7ccccc7c6[nH]5)cc4)ccc(c23)C(=O)N1CCN1CCNCC1 ?
Given back: inactive
